assay.notes: Biological tissue distribution in dogs after intravenous injection
Format: in vivo, dog (Female Mongrel)
reported.conditions: 2 hours, i.v. 100 μCi, Adrenal Medulla
Procedure: Biological tissue distribution studies were performed in rats, dogs, and monkeys injected intravenously with 25 μCi, 100 μCi and 100 μCi, respectively, of I-125 4-amino-3-iodobenzylguanidine in an average volume of 0.2 ml, 2 ml, and 1 ml, respectively. Representative samples of tissues were counted in an autogamma counter with corrections made for radioactive decay, background, and counter efficiency. […]
quantity: tissue concentration (Mean + S.E.M.) (% kg dose/g)
All answers are understood in % kg dose/g, so give the number only.

Data request: State its tissue concentration (Mean + S.E.M.): `N=C(N)NCc1ccc(N)c([125I])c1`
Data returned: 10.4

----------
assay.notes: Biological tissue distribution in dogs after intravenous injection
Assay type: in vivo, dog (Female Mongrel)
reported.conditions: 72 hours, i.v. 100 μCi, Adrenal Cortex
quantity: tissue concentration (Mean + S.E.M.) (% kg dose/g)
Write down the numeric answer in % kg dose/g and omit the unit.

Data request: # return recorded tissue concentration (Mean + S.E.M.) for input `N=C(N)NCc1ccc(N)c([125I])c1`
Data returned: 0.13

----------
assay.notes: Biological tissue distribution in dogs after intravenous injection
Format: in vivo, dog (Female Mongrel)
reported.conditions: 72 hours, i.v. 100 μCi, Liver
quantity: tissue concentration (Mean + S.E.M.) (% kg dose/g)
Your answer should be a plain number; it is taken to be in % kg dose/g.

Data request: Supply recorded tissue concentration (Mean + S.E.M.) for `N=C(N)NCc1ccc(N)c([125I])c1` here.
Data returned: 0.05

----------
assay.notes: Biological tissue distribution in dogs after intravenous injection
Assay type: in vivo, dog (Female Mongrel)
reported.conditions: 30 min, i.v. 100 μCi, Liver
quantity: tissue concentration (Mean + S.E.M.) (% kg dose/g)
Form entry: value (% kg dose/g) — number only.

Data request: Retrieve tissue concentration (Mean + S.E.M.) measured for N=C(N)NCc1ccc(N)c([125I])c1 [I-125 4-amino-3-iodobenzylguanidine] and print it.
Data returned: 0.36

----------
assay.notes: Biological tissue distribution in dogs after intravenous injection
Format: in vivo, dog (Female Mongrel)
reported.conditions: 30 min, i.v. 100 μCi, Muscle
Procedure: Biological tissue distribution studies were performed in rats, dogs, and monkeys injected intravenously with 25 μCi, 100 μCi and 100 μCi, respectively, of I-125 4-amino-3-iodobenzylguanidine in an average volume of 0.2 ml, 2 ml, and 1 ml, respectively. Representative samples of tissues were counted in an autogamma counter with corrections made for radioactive decay, background, and counter efficiency. […]
quantity: tissue concentration (Mean + S.E.M.) (% kg dose/g)
Write down the numeric answer in % kg dose/g and omit the unit.

Data request: Note tissue concentration (Mean + S.E.M.) for the compound shown: N=C(N)NCc1ccc(N)c([125I])c1 [I-125 4-amino-3-iodobenzylguanidine]
Data returned: 0.05

----------
assay.notes: Biological tissue distribution in dogs after intravenous injection
Assay type: in vivo, dog (Female Mongrel)
reported.conditions: 2 hours, i.v. 100 μCi, Liver
quantity: tissue concentration (Mean + S.E.M.)
Put your answer as a value accompanied by its unit after it.

Data request: Give the reported tissue concentration (Mean + S.E.M.) for this molecule. `N=C(N)NCc1ccc(N)c([125I])c1`
Data returned: 0.2 % kg dose/g
